- System: Escherichia coli
- measurement.notes: Activity of Escherichia coli beta-lactamase Toho-1 N104A mutant assessed as compound hydrolysis by spectrophotometry
readout.label: kcat (s⁻¹)

>>> val("CC1(C)S[C@@H]2[C@H](NC(=O)[C@H](N)c3ccccc3)C(=O)N2[C@H]1C(=O)O")
27
>>> val("O=C(Cc1cccs1)N[C@@H]1C(=O)N2C(C(=O)[O-])=C(C[n+]3ccccc3)CS[C@H]12")
99
>>> val("C[C@H]1[C@H](NC(=O)/C(=N\\OC(C)(C)C(=O)O)c2csc(N)n2)C(=O)N1S(=O)(=O)O")
8.6
>>> val("CC(=O)OCC1=C(C(=O)O)N2C(=O)[C@@H](NC(=O)Cc3cccs3)[C@H]2SC1")
180

###

- Tested on: Escherichia coli
- measurement.notes: Activity of Escherichia coli beta-lactamase Toho-1 C69A mutant assessed as compound hydrolysis by spectrophotometry
kcat for assorted molecules
readout.label: kcat (s⁻¹)

>>> val("CC(=O)OCC1=C(C(=O)O)N2C(=O)[C@@H](NC(=O)Cc3cccs3)[C@H]2SC1 [CEPHALOTHIN]")
780
>>> val("CO/N=C(\\C(=O)N[C@@H]1C(=O)N2C(C(=O)O)=C(CSc3cnns3)CS[C@H]12)c1csc(N)n1 [CEFUZONAM]")
560
>>> val("O=C(Cc1cccs1)N[C@@H]1C(=O)N2C(C(=O)[O-])=C(C[n+]3ccccc3)CS[C@H]12 [CEPHALORIDINE]")
300
>>> val("C[C@H]1[C@H](NC(=O)/C(=N\\OC(C)(C)C(=O)O)c2csc(N)n2)C(=O)N1S(=O)(=O)O [AZTREONAM]")
4.5
>>> val("CO/N=C(\\C(=O)N[C@@H]1C(=O)N2C(C(=O)O)=C(COC(C)=O)CS[C@H]12)c1csc(N)n1 [CEFOTAXIME]")
370
>>> val("CC1(C)S[C@@H]2[C@H](NC(=O)[C@H](N)c3ccccc3)C(=O)N2[C@H]1C(=O)O [AMPICILLIN]")
38

###

- Test system: Escherichia coli
- measurement.notes: Activity of Escherichia coli beta-lactamase Toho-1 G232A mutant assessed as compound hydrolysis by spectrophotometry
Where Km equals or exceeds 200 µM, the correct label is 1; where it does not, the label is -1.

>>> group_label("C[C@H]1[C@H](NC(=O)/C(=N\\OC(C)(C)C(=O)O)c2csc(N)n2)C(=O)N1S(=O)(=O)O")
-1
>>> group_label("CC1(C)S[C@@H]2[C@H](NC(=O)[C@H](N)c3ccccc3)C(=O)N2[C@H]1C(=O)O")
-1
>>> group_label("O=C(Cc1cccs1)N[C@@H]1C(=O)N2C(C(=O)[O-])=C(C[n+]3ccccc3)CS[C@H]12")
1
>>> group_label("CO/N=C(\\C(=O)N[C@@H]1C(=O)N2C(C(=O)O)=C(COC(C)=O)CS[C@H]12)c1csc(N)n1")
1
>>> group_label("CC(=O)OCC1=C(C(=O)O)N2C(=O)[C@@H](NC(=O)Cc3cccs3)[C@H]2SC1")
-1
>>> group_label("CO/N=C(\\C(=O)N[C@@H]1C(=O)N2C(C(=O)O)=C(CSc3cnns3)CS[C@H]12)c1csc(N)n1")
-1

###

- Test system: Escherichia coli
- measurement.notes: Activity of Escherichia coli beta-lactamase Toho-1 D240S mutant assessed as compound hydrolysis by spectrophotometry
readout.label: Km (µM)

>>> val("CC(=O)OCC1=C(C(=O)O)N2C(=O)[C@@H](NC(=O)Cc3cccs3)[C@H]2SC1")
120
>>> val("CO/N=C(\\C(=O)N[C@@H]1C(=O)N2C(C(=O)O)=C(CSc3cnns3)CS[C@H]12)c1csc(N)n1")
220
>>> val("CO/N=C(\\C(=O)N[C@@H]1C(=O)N2C(C(=O)O)=C(COC(C)=O)CS[C@H]12)c1csc(N)n1")
320
>>> val("O=C(Cc1cccs1)N[C@@H]1C(=O)N2C(C(=O)[O-])=C(C[n+]3ccccc3)CS[C@H]12")
250
>>> val("C[C@H]1[C@H](NC(=O)/C(=N\\OC(C)(C)C(=O)O)c2csc(N)n2)C(=O)N1S(=O)(=O)O")
93
>>> val("CC1(C)S[C@@H]2[C@H](NC(=O)[C@H](N)c3ccccc3)C(=O)N2[C@H]1C(=O)O")
25

###

- Tested on: Escherichia coli
- measurement.notes: Activity of Escherichia coli beta-lactamase Toho-1 F160T mutant assessed as compound hydrolysis by spectrophotometry
Checkbox rule: kcat lower than 40 s⁻¹ = true (1); kcat not lower than 40 s⁻¹ = false (0).

>>> group_label("CC(=O)OCC1=C(C(=O)O)N2C(=O)[C@@H](NC(=O)Cc3cccs3)[C@H]2SC1")
"false (0)"
>>> group_label("CO/N=C(\\C(=O)N[C@@H]1C(=O)N2C(C(=O)O)=C(CSc3cnns3)CS[C@H]12)c1csc(N)n1")
"false (0)"
>>> group_label("CO/N=C(\\C(=O)N[C@@H]1C(=O)N2C(C(=O)O)=C(COC(C)=O)CS[C@H]12)c1csc(N)n1")
"false (0)"
>>> group_label("C[C@H]1[C@H](NC(=O)/C(=N\\OC(C)(C)C(=O)O)c2csc(N)n2)C(=O)N1S(=O)(=O)O")
"true (1)"
>>> group_label("O=C(Cc1cccs1)N[C@@H]1C(=O)N2C(C(=O)[O-])=C(C[n+]3ccccc3)CS[C@H]12")
"false (0)"

###

- System: Escherichia coli
- measurement.notes: Activity of Escherichia coli beta-lactamase Toho-1 […] mutant assessed as compound hydrolysis by spectrophotometry
readout.label: Km

>>> val("CC1(C)S[C@@H]2[C@H](NC(=O)[C@H](N)c3ccccc3)C(=O)N2[C@H]1C(=O)O")
"120 µM"
>>> val("CO/N=C(\\C(=O)N[C@@H]1C(=O)N2C(C(=O)O)=C(CSc3cnns3)CS[C@H]12)c1csc(N)n1")
"140 µM"
>>> val("O=C(Cc1cccs1)N[C@@H]1C(=O)N2C(C(=O)[O-])=C(C[n+]3ccccc3)CS[C@H]12")
"270 µM"
>>> val("C[C@H]1[C@H](NC(=O)/C(=N\\OC(C)(C)C(=O)O)c2csc(N)n2)C(=O)N1S(=O)(=O)O")
"31 µM"
>>> val("CO/N=C(\\C(=O)N[C@@H]1C(=O)N2C(C(=O)O)=C(COC(C)=O)CS[C@H]12)c1csc(N)n1")
"230 µM"
>>> val("CC(=O)OCC1=C(C(=O)O)N2C(=O)[C@@H](NC(=O)Cc3cccs3)[C@H]2SC1")
"77 µM"

###

- System: Escherichia coli
- measurement.notes: Ratio of Kcat to Km for Escherichia coli beta-lactamase Toho-1 F160T mutant assessed as compound hydrolysis by spectrophotometry
readout.label: kcat/Km (×10⁶ /s/M)

>>> val("CC(=O)OCC1=C(C(=O)O)N2C(=O)[C@@H](NC(=O)Cc3cccs3)[C@H]2SC1")
4.1
>>> val("CO/N=C(\\C(=O)N[C@@H]1C(=O)N2C(C(=O)O)=C(CSc3cnns3)CS[C@H]12)c1csc(N)n1")
2.1
>>> val("O=C(Cc1cccs1)N[C@@H]1C(=O)N2C(C(=O)[O-])=C(C[n+]3ccccc3)CS[C@H]12")
1.1
>>> val("CO/N=C(\\C(=O)N[C@@H]1C(=O)N2C(C(=O)O)=C(COC(C)=O)CS[C@H]12)c1csc(N)n1")
1.2
>>> val("CC1(C)S[C@@H]2[C@H](NC(=O)[C@H](N)c3ccccc3)C(=O)N2[C@H]1C(=O)O")
1.5

###

Overview of recorded kcat for various compounds
- Test system: Escherichia coli
- measurement.notes: Activity of Escherichia coli beta-lactamase Toho-1 D240S mutant assessed as compound hydrolysis by spectrophotometry
readout.label: kcat (s⁻¹)

>>> val("C[C@H]1[C@H](NC(=O)/C(=N\\OC(C)(C)C(=O)O)c2csc(N)n2)C(=O)N1S(=O)(=O)O [AZTREONAM]")
12
>>> val("CO/N=C(\\C(=O)N[C@@H]1C(=O)N2C(C(=O)O)=C(CSc3cnns3)CS[C@H]12)c1csc(N)n1 [CEFUZONAM]")
430
>>> val("O=C(Cc1cccs1)N[C@@H]1C(=O)N2C(C(=O)[O-])=C(C[n+]3ccccc3)CS[C@H]12 [CEPHALORIDINE]")
190
>>> val("CO/N=C(\\C(=O)N[C@@H]1C(=O)N2C(C(=O)O)=C(COC(C)=O)CS[C@H]12)c1csc(N)n1 [CEFOTAXIME]")
370
>>> val("CC1(C)S[C@@H]2[C@H](NC(=O)[C@H](N)c3ccccc3)C(=O)N2[C@H]1C(=O)O [AMPICILLIN]")
33
>>> val("CC(=O)OCC1=C(C(=O)O)N2C(=O)[C@@H](NC(=O)Cc3cccs3)[C@H]2SC1 [CEPHALOTHIN]")
410

###

Here the recorded log10 of kcat is given for each entry.
- System: Escherichia coli
- measurement.notes: Activity of Escherichia coli beta-lactamase Toho-1 […] mutant assessed as compound hydrolysis by spectrophotometry
readout.label: log10 of kcat (log10 of the value in s⁻¹)

>>> val("O=C(Cc1cccs1)N[C@@H]1C(=O)N2C(C(=O)[O-])=C(C[n+]3ccccc3)CS[C@H]12")
2.51
>>> val("C[C@H]1[C@H](NC(=O)/C(=N\\OC(C)(C)C(=O)O)c2csc(N)n2)C(=O)N1S(=O)(=O)O")
0.96
>>> val("CC1(C)S[C@@H]2[C@H](NC(=O)[C@H](N)c3ccccc3)C(=O)N2[C@H]1C(=O)O")
2.49
>>> val("CO/N=C(\\C(=O)N[C@@H]1C(=O)N2C(C(=O)O)=C(COC(C)=O)CS[C@H]12)c1csc(N)n1")
1.97
>>> val("CO/N=C(\\C(=O)N[C@@H]1C(=O)N2C(C(=O)O)=C(CSc3cnns3)CS[C@H]12)c1csc(N)n1")
2.11
>>> val("CC(=O)OCC1=C(C(=O)O)N2C(=O)[C@@H](NC(=O)Cc3cccs3)[C@H]2SC1")
2.57
